# Assay method text: surface tension of aqueous solution (0.1%)
# Assay type: physicochemical
# Run parameters: aqueous solution containing 0.1%, 25° C.
Quantity: surface tension

- Compound smiles: "C[N+](C)(CCNC(=S)NCCC(F)(F)C(F)(F)C(F)(F)C(F)(F)C(F)(F)C(F)(F)F)CC[N+](C)(C)CCNC(=S)NCCC(F)(F)C(F)(F)C(F)(F)C(F)(F)C(F)(F)C(F)(F)F"
  Quantity: "surface tension"
  Result: "15.5 mN m^-1"
- Compound smiles: "C[N+](C)(C)CCNC(=S)NCCC(F)(F)C(F)(F)C(F)(F)C(F)(F)C(F)(F)C(F)(F)C(F)(F)C(F)(F)F"
  Quantity: "surface tension"
  Result: "15.5 mN m^-1"
- Compound smiles: "C[N+](C)([O-])CCNC(=S)NCCC(F)(F)C(F)(F)C(F)(F)C(F)(F)C(F)(F)C(F)(F)F"
  Quantity: "surface tension"
  Result: "16.3 mN m^-1"
- Compound smiles: "C[N+](C)(C)CCNC(=S)NCCC(F)(F)C(F)(F)C(F)(F)C(F)(F)C(F)(F)C(F)(F)F"
  Quantity: "surface tension"
  Result: "19.2 mN m^-1"
- Compound smiles: "C[N+](C)(CCC[N+](C)(C)CCNC(=S)NCCC(F)(F)C(F)(F)C(F)(F)C(F)(F)C(F)(F)C(F)(F)F)CCNC(=S)NCCC(F)(F)C(F)(F)C(F)(F)C(F)(F)C(F)(F)C(F)(F)F"
  Quantity: "surface tension"
  Result: "16.4 mN m^-1"

###

# Assay method text: surface tension of aqueous solution (0.1%)
# Assay type: physicochemical
# Run parameters: Table 6; aqueous solution at a concentration of 0.1%, 25° C.
Measured γs (surface tension) by item
Quantity: γs (surface tension) (mN m^-1)

- Compound smiles: "CCCCCCCC[N+](C)(C)CCNC(=S)NCCC(F)(F)C(F)(F)C(F)(F)C(F)(F)C(F)(F)C(F)(F)F"
  Quantity: "γs (surface tension)"
  Unit spec: "mN m^-1"
  Numeric readout: 15.9
- Compound smiles: "CCCCCCCCCCCCCCCC[N+](C)(C)CCNC(=S)NCCC(F)(F)C(F)(F)C(F)(F)C(F)(F)C(F)(F)C(F)(F)F"
  Quantity: "γs (surface tension)"
  Unit spec: "mN m^-1"
  Numeric readout: 20.3
- Compound smiles: "CCCCCCCCCCCCCCCC[N+](C)(C)CCNC(=S)NCCC(F)(F)C(F)(F)C(F)(F)C(F)(F)F"
  Quantity: "γs (surface tension)"
  Unit spec: "mN m^-1"
  Numeric readout: 26.8
- Compound smiles: "CCCCCCCC[N+](C)(C)CCNC(=S)NCCC(F)(F)C(F)(F)C(F)(F)C(F)(F)C(F)(F)C(F)(F)C(F)(F)C(F)(F)F"
  Quantity: "γs (surface tension)"
  Unit spec: "mN m^-1"
  Numeric readout: 15.9
- Compound smiles: "CCCCC[N+](C)(C)CCNC(=S)NCCC(F)(F)C(F)(F)C(F)(F)C(F)(F)C(F)(F)C(F)(F)C(F)(F)C(F)(F)F"
  Quantity: "γs (surface tension)"
  Unit spec: "mN m^-1"
  Numeric readout: 16
- Compound smiles: "CCCCCCCC[N+](C)(C)CCNC(=S)NCCC(F)(F)C(F)(F)C(F)(F)C(F)(F)F"
  Quantity: "γs (surface tension)"
  Unit spec: "mN m^-1"
  Numeric readout: 19.7
